infectivity % under 10 ug/mL VHH treatment listing for selected binders.
- system-tested: SARS-CoV-2 spike protein on pseudotyped lentivirus (Wuhan Reference Pseudovirus) (SARS-CoV-2, UniProt P0DTC2 14-1273)
- procedure-text: cell-based or functional assay
attribute-measured: infectivity % under 10 ug/mL VHH treatment (%)

| binder | obs-value |
| --- | --- |
| PP806 MBP-R2B-E6-H6 (VHH, Form: Monomer) VHH: QVQLVESGGGLVQPGGSLRLSCAASGGVTRGNAMAWYRQAPGKQREIVAAIDNGGSHAYGDSVKGRFTISRDNAKNTVYLQMNSLKPEDTAVYYCAVFPDHDSEQASIDRVYWGQGTQVTVSS | 86.5 |
| PP1156 MPB-scTRP-PAPA-R2c-F6-H6 (VHH, Form: Trimer) VHH: QVQLVESGGGLVQPGGSLRLSCAASGRILAANIVHWYRQAPGKEREGVAGITTGGSNYYSDSVKGRFTISRDNAKNTVYLQMNSLKPEDTAVYYCNALGLGSASGSYESWGQGTQVTVSS | 18.1 |
| PP1135 MBP-4B0F-PAPA-R5a-B7-H6 (VHH, Form: Heptamer) VHH: QVQLVESGGGLVQPGGSLRLSCAASGAFFSYGAIHWFRQAPGKQREEVAAITSGGSTGYADSVKGRFTISRDNAKNTVYLQMNSLKPEDTAVYYCNAGVVWLPSNAAYNLWGQGTQVTVSS | -0.03 |
| PP899 MBP-5HVZ-R5a-B5-H6 (VHH, Form: Dimer) VHH: QVQLVESGGGLVQPGGSLRLSCAASGDDFIENAISWYRQAPGKGREWVAAVTLGGHSNYADSVKGRFTISRDNAKNTVYLQMNSLKPEDTAVYYCNYPVGIPAVAIDGRRSYGYWGQGTQVTVSS | 2.43 |
| PP883 MBP-R1e-D4-H6 (VHH, Form: Monomer) VHH: QVQLVESGGGLVQPGGSLRLSCAASGSIREINAMHWVRQAPGKGRELVASIDSGSLDYYADSVKGRFTISRDNAKNTVYLQMNSLKPEDTAVYYCAASRSGDYRYWGQGTQVTVSS | 94.3 |
| PP810 MBP-R2D-A6-H6 (VHH, Form: Monomer) VHH: QVQLVESGGGLVQPGGSLRLSCAASGSGASIGAMHWFRQAPGKGREWVASITSAGNTYYGDSVKGRFTISRDNAKNTVYLQMNSLKPEDTAVYYCNALAGANYESQWEEYNYWGQGTQVTVSS | 77.5 |
| PP1147 MBP-5HVZ-PAPA-R5a-B7-H6 (VHH, Form: Dimer) VHH: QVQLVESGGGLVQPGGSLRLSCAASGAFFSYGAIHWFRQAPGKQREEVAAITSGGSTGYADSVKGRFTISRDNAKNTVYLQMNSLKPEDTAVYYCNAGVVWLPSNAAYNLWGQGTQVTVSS | 1.79 |
| PP908 MBP-5HVZ-S2a-C4-H6 (VHH, Form: Dimer) VHH: QVQLVESGGGLVQPGGSLRLSCAASGFSESINATAWFRQAPGKQREGVAGLDGGGSDYYSDSVKGRFTISRDNAKNTVYLQMNSLKPEDTAVYYCAAQLTSSFRGYDFTPSNYDYWGQGTQVTVSS | 47.5 |
